The reported numbers originate from paper PMC4397963.

measurement-target: T1, Shc PTB domain (17 – 207) (UniProt P29353-2 17-207)
T1 construct: Shc adaptor protein (p52 isoform), PTB domain, residues 17-207, from a pET15b vector; numbers count on: the p52 isoform (full length 1-473); 15N-labelled (M9 medium with 15NH4Cl) for the NMR experiments; Monomeric on Superdex-75; also called apo PTB domain; source: E. coli Rosetta (DE3), purified (Ni-NTA, Superdex-75)
T1 sequence (looked up): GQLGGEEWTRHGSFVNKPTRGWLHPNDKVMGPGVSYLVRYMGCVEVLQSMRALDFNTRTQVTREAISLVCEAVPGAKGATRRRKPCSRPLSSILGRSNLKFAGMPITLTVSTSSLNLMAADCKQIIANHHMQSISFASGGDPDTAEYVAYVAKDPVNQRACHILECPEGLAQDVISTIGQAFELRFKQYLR
assay-protocol: ITC; Nano ITC; β3 phosphopeptide titrated into the Shc protein over-saturated by Ins(1,4,5)P3 at 3 to 1 lipid to protein ratio; 12°C
conditions-used: both partners purified
Where no end group is shown, it is not given here. [ ]: non-standard residue; d: D form. pY = N[C@@H](Cc1ccc(OP(=O)(O)O)cc1)C(=O)O
recorded-endpoint: Kd (nM)
Field format: number, assumed nM, no unit text.

- binder: "RAKWDTANNPL[pY]KEATSTFTNIT[pY]RGT (integrin β3 cytoplasmic tail, residues 736-762, both tyrosines phosphorylated; also called bi-phosphorylated β3 cytoplasmic tail peptide; source: synthetic peptide (NEO-Peptide)) [bi-β3: β3 integrin derived bi-phosphorylated (Y747 and Y759) peptide]"
  observed-value: 3650

Entry ATSTFTNIT[pY]RGT (integrin β3 cytoplasmic tail, residues 750-762, Y759 phosphorylated; also called mono-phosphorylated peptide; source: synthetic peptide (NEO-Peptide)) [c-β3: β3 integrin derived peptide phosphorylated at C-terminal tyrosine (Y759)] — recorded Kd = 1120
